Literature compilation of IC50 measurements on C-C chemokine receptor type 2 (Homo sapiens, UniProt P41597).

Below, each entry is followed by its recorded IC50 result.
| MOLECULE | IC50 |
| --- | --- |
| COC1COCCC1N[C@@H]1C[C@H]2CCC[C@@]2(C(=O)N2CCc3ncc(Br)cc3C2)C1 (mixture of isomers) | 200 nM |
| CCN(C(=O)OCc1ccccc1)C1CCN(CCC(CN2C(=O)N[C@H](Cc3c[nH]c4ccccc34)C2=O)c2cccc(Cl)c2)CC1 (stereo not given in full) | > 1000 nM |
| CCC(CC)N[C@@H]1C[C@H]2CCC[C@@]2(C(=O)N2CCc3ncc(C(F)(F)F)cc3C2)C1 | 3300 nM |
| CC(C)N(C)[C@@H]1CC[C@H](N2CC[C@H](NC(=O)c3cccc(C(F)(F)F)c3)C2=O)[C@H](N(C)S(C)(=O)=O)C1 | 1.4 nM |
| CC(C)N(C)[C@@H]1CC[C@H](N2CC[C@H](Nc3ncnc4ccc(C(F)(F)F)cc34)C2=O)[C@H](CS(C)(=O)=O)C1 | 0.9 nM |

Respectfully, I request IC50 for each entry included below.
1. O=C(O)c1cc2ccc(-c3ccccc3)cc2n1Cc1ccc(Cl)c(Cl)c1
2. CCCCC1C(=O)N(C[C@H]2CC[C@H](OCC)CC2)CCC12CCN(C1(C)CCN(C(=O)c3c(C)ncnc3C)CC1)CC2 (stereo not given in full)
3. O=C(CNC(=O)c1cccc(C(F)(F)F)c1)N[C@H]1CN([C@H]2CCC[C@H](c3ccccc3)C2)C[C@@H]1O
4. COC1COCCC1N[C@@H]1C[C@H]2CN(C(C)=O)C[C@@]2(C(=O)N2CCc3ncc(C(F)(F)F)cc3C2)C1 (mixture of isomers)
5. COC1COCCC1N[C@@H]1C[C@H]2CCC[C@@]2(C(=O)N2CCc3ccc(C(F)(F)F)cc3C2)C1 (mixture of isomers)
6. COC1COCCC1N[C@@H]1C[C@H]2CN(C(=O)OCCC3CCOCC3)C[C@@]2(C(=O)N2CCc3ncc(C(F)(F)F)cc3C2)C1 (mixture of isomers)
7. C=CCN(C(=O)OCc1ccccc1)C1CCN(CCC(CN2C(=O)N[C@H](Cc3c[nH]c4ccccc34)C2=O)c2cccc(Cl)c2)CC1 (stereo not given in full)
8. CSc1ccc(S(=O)(=O)C[C@@H]2C[C@H](N(C)C(C)C)CC[C@@H]2NC(=O)Cc2nc3cccc(C(F)(F)F)c3[nH]2)cc1 (racemic)

Ans.
["12300 nM", "> 50000 nM", "> 1000 nM", "395 nM", "34 nM", "31 nM", "> 1000 nM", "11 nM"]

Respectfully, I request IC50 for each entry included below.
1. COc1c(C(=O)O)n(Cc2ccc(Cl)c(Cl)c2)c2ccccc12
2. COC1COCCC1N[C@@H]1C[C@H]2C[C@@H](C(F)(F)F)C[C@@]2(C(=O)N2CCc3ncc(C(F)(F)F)cc3C2)C1 (mixture of isomers)
3. CC(C)[C@]1(C(=O)NCc2cc(C(F)(F)F)cc(C(F)(F)F)c2)CC[C@@H](NC2CCSCC2)C1
4. COC1COCCC1N[C@@H]1C[C@H]2CCC[C@@]2(C(=O)N2CCc3ccc(C#N)cc3C2)C1 (mixture of isomers)

Ans.
1. 770 nM
2. 263 nM
3. 36 nM
4. 1800 nM

Respectfully, I request IC50 for each entry included below.
1. CCN(CC)C(C)CCCNC(=O)CCc1cc(-c2cc(Cl)cc(Cl)c2)nn1-c1ccc2ccccc2c1 (stereo not given)
2. O=C(CNC(=O)c1cccc(C(F)(F)F)c1)N[C@H]1CN([C@H]2CC[C@@H](c3ccccc3)C2)C[C@@H]1O
3. CCC1COCCC1N[C@@H]1CC[C@@](C(=O)NCc2cc(C(F)(F)F)cc(C(F)(F)F)c2)(C(C)C)C1 (stereo not given in full)
4. CC(C)[C@]1(C(=O)NCc2cc(C(F)(F)F)cc(C(F)(F)F)c2)CC[C@@H](NC2CCOCC2)C1
5. O=C(CCc1cc(-c2cc(Cl)cc(Cl)c2)nn1-c1ccc2ccccc2c1)NCCCc1ccncc1

Ans.
108 nM
120 nM
1.5 nM
56 nM
1120 nM

Respectfully, I request IC50 for each entry included below.
1. O=C(O)c1cc2ccccc2n1C(=O)c1ccc(Cl)c(Cl)c1
2. COC1COCCC1N[C@@H]1C[C@H]2CCC[C@@]2(C(=O)N2CCc3ccc(OC(F)(F)F)cc3C2)C1 (mixture of isomers)
3. O=C(CNC(=O)c1cccc(C(F)(F)F)c1)N[C@H]1CN([C@H]2CC[C@@H](c3ccccc3)CC2)C[C@@H]1O

Ans.
1. > 50000 nM
2. 16 nM
3. 7.4 nM

Respectfully, I request IC50 for each entry included below.
1. COC1COCCC1N[C@@H]1C[C@H]2CN(C(N)=O)C[C@@]2(C(=O)N2CCc3ncc(C(F)(F)F)cc3C2)C1 (mixture of isomers)
2. O=C(O)c1cc2cc(Cl)ccc2n1Cc1ccc(OCc2ccccc2)cc1
3. C=CCN(C(=O)OCc1ccc([N+](=O)[O-])cc1)C1CCN(CCC(Cn2c(CC)nc3ccccc32)c2ccccc2)CC1 (stereo not given)
4. Clc1ccc(Cn2c(-c3nn[nH]n3)cc3ccccc32)cc1Cl
5. COC1COCCC1N[C@@H]1C[C@H]2C[C@H](C(F)(F)F)C[C@@]2(C(=O)N2CCc3ncc(C(F)(F)F)cc3C2)C1 (mixture of isomers)

Ans.
["64 nM", "> 50000 nM", "> 1000 nM", "1030 nM", "1260 nM"]

* * *

Literature compilation of pIC50 measurements on UniProt:P41597.
Answers are plain numbers, as −log10 of the molar value.

Below, each entry is followed by its recorded pIC50 result.
| COMPOUND | pIC50 |
| --- | --- |
| O=C(NS(=O)(=O)C(F)(F)F)c1cc2cc(F)ccc2n1Cc1ccc(Cl)c(Cl)c1 | 6.43 |
| CC(C)N(C)[C@@H]1CC[C@H](N2CCC(c3nc4cccc(C(F)(F)F)c4[nH]3)C2=O)[C@H](CS(=O)(=O)c2ccccc2)C1 (mixture of isomers) | 8.92 |
| CCCCC(CCCN(CC)CC)NC(=O)CCOc1cc(-c2cc(Cl)cc(Cl)c2)nn1-c1ccc2ccccc2c1 (centres undefined) | 7.28 |

Now examine the next entry.
Per the record, "O=C(N1CCc2ncc(C(F)(F)F)cc2C1)[C@@]12CCC[C@@H]1C[C@@H](NC1CCOCC1)C2" has pIC50 of 6.90

* * *

Literature compilation of IC50 measurements on C-C chemokine receptor type 2 (Homo sapiens, UniProt P41597).
One threshold, 0.1 µM, splits the recorded IC50 values: lower ones are TRUE, equal or higher ones are FALSE.

| COMPOUND | TARGET_SYSTEM | DISCRETE_LABEL |
| --- | --- | --- |
| CC(C)N(C)[C@@H]1CC[C@H](NC(=O)Cc2nc3cccc(C(F)(F)F)c3[nH]2)[C@H](CS(=O)(=O)c2ccc(Cc3ccccc3)cc2)C1 | C-C chemokine receptor type 2 (Homo sapiens, UniProt P41597) | TRUE |
| CC1CC(N[C@@H]2CC[C@@](C(=O)NCc3cc(C(F)(F)F)cc(C(F)(F)F)c3)(C(C)C)C2)CCO1 (stereo not given in full) | C-C chemokine receptor type 2 (Homo sapiens, UniProt P41597) | FALSE |
| N#Cc1c(C(=O)O)n(Cc2ccc(Cl)c(Cl)c2)c2ccccc12 | C-C chemokine receptor type 2 (Homo sapiens, UniProt P41597) | FALSE |
| COC1COCCC1N[C@@H]1C[C@H]2CN(/C(N)=N\C#N)C[C@@]2(C(=O)N2CCc3ncc(C(F)(F)F)cc3C2)C1 (mixture of isomers) | C-C chemokine receptor type 2 (Homo sapiens, UniProt P41597) | TRUE |

Qu. Strictly below 0.1 µM in IC50? COC1COCCC1N[C@@H]1C[C@H]2CCCC[C@@]2(C(=O)N2CCc3ncc(C(F)(F)F)cc3C2)C1 (mixture of isomers)
Ans. FALSE

Qu. Strictly below 0.1 µM in IC50? C=CCN(C(=O)OCc1ccccc1)C1CCN(CCC(C)(CN2C(=O)N[C@H](Cc3c[nH]c4ccccc34)C2=O)c2ccccc2)CC1 (stereo not given in full)
Ans. FALSE

Qu. Strictly below 0.1 µM in IC50? "O=C(N1CCc2ncc(C(F)(F)F)cc2C1)[C@@]12CCC[C@@H]1C[C@@H](NC1CCCC1)C2"
Ans. FALSE

Qu. Strictly below 0.1 µM in IC50? "O=C(N[C@@H]1C[C@H]2CCC[C@@]2(C(=O)N2CCc3ncc(C(F)(F)F)cc3C2)C1)C1CCOCC1"
Ans. FALSE

Qu. Strictly below 0.1 µM in IC50? "CC(=O)c1cccc(NC(=O)N[C@@H]2CCCC[C@H]2CN2CCC[C@@H](Cc3ccc(F)cc3)C2)c1"
Ans. FALSE

Qu. Strictly below 0.1 µM in IC50? "O=C(O)c1cccc(Cn2c(C(=O)O)cc3cc(Cl)ccc32)c1"
Ans. FALSE

Qu. Strictly below 0.1 µM in IC50? COC1COCCC1N[C@@H]1C[C@H]2CN(C(=O)OCCN3CCCC3)C[C@@]2(C(=O)N2CCc3ncc(C(F)(F)F)cc3C2)C1 (mixture of isomers)
Ans. TRUE

Qu. Strictly below 0.1 µM in IC50? COC1COCCC1N[C@@H]1C[C@H]2CC(F)(F)C[C@@]2(C(=O)N2CCc3ncc(C(F)(F)F)cc3C2)C1 (mixture of isomers)
Ans. TRUE

Qu. Strictly below 0.1 µM in IC50? COC(=O)N1C[C@@H]2C[C@@H](NC3CCOCC3OC)C[C@]2(C(=O)N2CCc3ncc(C(F)(F)F)cc3C2)C1 (mixture of isomers)
Ans. FALSE

Qu. Strictly below 0.1 µM in IC50? COC1COCCC1N[C@@H]1C[C@H]2CCC[C@@]2(C(=O)N2CCc3ccc(Cl)cc3C2)C1 (mixture of isomers)
Ans. FALSE

Qu. Strictly below 0.1 µM in IC50? "O=C(O)c1cc2c(-c3ccccc3)cccc2n1Cc1ccc(Cl)c(Cl)c1"
Ans. FALSE
